Measured fold slower dissociation rate accompanies every entry in the list below.
systemName: T1, integrin αVβ3 (human, UniProt P06756 31-1048; P05106 27-788)
T1 construct: mature; biotinylated in capture lift and capture ELISA; also on M21 melanoma cells in some assays; also called vitronectin receptor; αVβ3 receptor
T1 sequence (P06756 31-1048, chain 1 of 2): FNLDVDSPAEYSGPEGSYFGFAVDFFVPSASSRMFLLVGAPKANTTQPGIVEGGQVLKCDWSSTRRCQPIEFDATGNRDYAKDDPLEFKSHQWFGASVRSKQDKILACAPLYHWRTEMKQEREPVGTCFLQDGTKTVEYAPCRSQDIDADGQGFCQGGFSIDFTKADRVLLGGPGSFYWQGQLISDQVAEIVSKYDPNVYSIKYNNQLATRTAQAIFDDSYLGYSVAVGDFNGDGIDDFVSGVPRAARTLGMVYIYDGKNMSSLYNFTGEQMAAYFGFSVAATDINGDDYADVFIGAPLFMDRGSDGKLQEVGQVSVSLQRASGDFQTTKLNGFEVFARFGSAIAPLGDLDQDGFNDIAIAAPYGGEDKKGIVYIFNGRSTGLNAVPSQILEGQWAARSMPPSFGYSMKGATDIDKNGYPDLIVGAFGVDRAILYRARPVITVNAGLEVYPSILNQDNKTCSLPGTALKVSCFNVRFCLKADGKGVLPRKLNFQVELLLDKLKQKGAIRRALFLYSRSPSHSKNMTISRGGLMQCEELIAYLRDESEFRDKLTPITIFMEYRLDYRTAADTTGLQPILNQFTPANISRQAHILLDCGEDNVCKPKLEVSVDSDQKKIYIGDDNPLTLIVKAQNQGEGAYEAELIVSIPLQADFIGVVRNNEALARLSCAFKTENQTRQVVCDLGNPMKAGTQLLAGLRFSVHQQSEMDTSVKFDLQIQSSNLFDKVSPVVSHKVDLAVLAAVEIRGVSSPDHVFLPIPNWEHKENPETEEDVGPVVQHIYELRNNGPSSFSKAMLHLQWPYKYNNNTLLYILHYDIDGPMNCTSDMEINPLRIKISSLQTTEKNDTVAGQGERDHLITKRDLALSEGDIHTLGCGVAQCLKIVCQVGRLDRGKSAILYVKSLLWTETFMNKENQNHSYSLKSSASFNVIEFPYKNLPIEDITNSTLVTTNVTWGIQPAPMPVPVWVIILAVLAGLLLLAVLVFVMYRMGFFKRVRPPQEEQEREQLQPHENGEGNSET
T1 sequence (P05106 27-788, chain 2 of 2): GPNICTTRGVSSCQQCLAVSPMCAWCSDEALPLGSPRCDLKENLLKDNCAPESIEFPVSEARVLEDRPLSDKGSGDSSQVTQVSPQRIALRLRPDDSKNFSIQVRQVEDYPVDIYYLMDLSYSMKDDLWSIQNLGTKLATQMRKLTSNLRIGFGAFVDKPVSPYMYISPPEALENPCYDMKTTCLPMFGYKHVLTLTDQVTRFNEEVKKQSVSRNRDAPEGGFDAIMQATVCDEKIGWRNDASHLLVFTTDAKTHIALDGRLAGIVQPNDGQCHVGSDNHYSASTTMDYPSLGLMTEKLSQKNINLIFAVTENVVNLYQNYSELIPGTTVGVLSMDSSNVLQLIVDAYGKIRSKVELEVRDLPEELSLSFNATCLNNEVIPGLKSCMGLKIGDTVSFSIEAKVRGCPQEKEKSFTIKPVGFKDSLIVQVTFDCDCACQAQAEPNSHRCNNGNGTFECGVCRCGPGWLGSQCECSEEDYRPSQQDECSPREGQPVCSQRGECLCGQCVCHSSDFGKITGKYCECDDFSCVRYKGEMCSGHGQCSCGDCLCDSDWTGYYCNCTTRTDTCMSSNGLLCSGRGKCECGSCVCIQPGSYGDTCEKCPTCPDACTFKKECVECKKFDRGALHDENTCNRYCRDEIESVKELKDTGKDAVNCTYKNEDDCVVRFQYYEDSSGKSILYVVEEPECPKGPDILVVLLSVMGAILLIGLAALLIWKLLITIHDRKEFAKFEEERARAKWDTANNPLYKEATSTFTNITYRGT
assay: SPR (BIAcore)
measureName: fold slower dissociation rate

[[record]]
binder = "LM609 grafted antibody combinatorial clone C59 (Fab, V domains shown, Fab) VH: QVQLVESGGGVVQPGRSLRLSCAASGFTFSSYDMSWVRQAPGKGLEWVAKVSSGGGSTYYPDTVQGRFTISRDNSKNTLYLQMNSLRAEDTAVYYCARHNYGSFADWGQGTTVTVSS VL: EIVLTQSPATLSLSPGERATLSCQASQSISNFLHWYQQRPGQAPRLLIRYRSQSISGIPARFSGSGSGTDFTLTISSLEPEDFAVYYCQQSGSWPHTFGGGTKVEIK"
measurename = "fold slower dissociation rate"
reported = "> 10 fold"

[[record]]
binder = "LM609 grafted antibody combinatorial clone C29 (Fab, V domains shown, Fab) VH: QVQLVESGGGVVQPGRSLRLSCAASGFTFSSYDMSWVRQAPGKGLEWVAKVSSGGGSTYYPDTVQGRFTISRDNSKNTLYLQMNSLRAEDTAVYYCARHNHGSFYSWGQGTTVTVSS VL: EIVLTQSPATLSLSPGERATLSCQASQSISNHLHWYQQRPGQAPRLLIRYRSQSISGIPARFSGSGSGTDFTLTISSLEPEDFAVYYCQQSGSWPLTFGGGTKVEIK"
measurename = "fold slower dissociation rate"
reported = "> 10 fold"

[[record]]
binder = "LM609 grafted antibody combinatorial clone 17 (Fab, V domains shown, Fab) VH: QVQLVESGGGVVQPGRSLRLSCAASGFTFSSYDMSWVRQAPGKGLEWVAKVSSGGGSTYYLDTVQGRFTISRDNSKNTLYLQMNSLRAEDTAVYYCARHNYGSFASWGQGTTVTVSS VL: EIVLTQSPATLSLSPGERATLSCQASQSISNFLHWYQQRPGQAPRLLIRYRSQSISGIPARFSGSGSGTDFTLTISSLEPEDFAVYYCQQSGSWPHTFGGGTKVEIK"
measurename = "fold slower dissociation rate"
reported = "> 10 fold"

